Values from patent US11014941B2

pIC50: −log10 of the molar value.
Parameter 'readout' = pIC50; parameter 'system' = Influenza PB2 (Influenza A virus, UniProt P03428).
Sequence (P03428 whole entry, looked up): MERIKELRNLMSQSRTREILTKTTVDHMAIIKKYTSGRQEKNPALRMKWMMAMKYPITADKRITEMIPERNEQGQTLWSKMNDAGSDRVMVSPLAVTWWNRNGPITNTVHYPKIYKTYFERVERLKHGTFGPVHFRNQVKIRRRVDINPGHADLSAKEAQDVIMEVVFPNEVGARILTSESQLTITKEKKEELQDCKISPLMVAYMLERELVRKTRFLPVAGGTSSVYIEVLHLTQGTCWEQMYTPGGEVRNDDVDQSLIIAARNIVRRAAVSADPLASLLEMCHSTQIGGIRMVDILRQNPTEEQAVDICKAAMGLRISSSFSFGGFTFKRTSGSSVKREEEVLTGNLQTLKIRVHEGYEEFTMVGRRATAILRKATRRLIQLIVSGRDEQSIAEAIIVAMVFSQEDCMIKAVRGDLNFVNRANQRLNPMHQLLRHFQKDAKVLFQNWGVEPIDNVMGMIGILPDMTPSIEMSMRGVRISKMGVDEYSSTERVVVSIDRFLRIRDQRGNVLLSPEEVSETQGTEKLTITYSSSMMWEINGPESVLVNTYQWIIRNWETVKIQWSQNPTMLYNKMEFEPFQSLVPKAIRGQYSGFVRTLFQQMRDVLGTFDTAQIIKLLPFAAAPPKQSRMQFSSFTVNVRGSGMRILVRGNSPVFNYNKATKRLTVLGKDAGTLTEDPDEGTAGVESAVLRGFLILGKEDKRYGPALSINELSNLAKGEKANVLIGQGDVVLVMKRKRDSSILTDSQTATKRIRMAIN

Checklist item: pIC50 tested on Influenza PB2 (Influenza A virus, UniProt P03428), entry CN(C)C(=O)Cn1cc(-c2c[nH]c3ncc(F)cc23)c2cncnc21 , value?
4.00 to 5.00

###

target: Influenza PB2 (Influenza A virus, UniProt P03428)
pIC50: −log10 of the molar value.
pIC50 reference

>  <Molecule>
O=C(O)[C@@H]1C2CCC(CC2)[C@H]1n1ccc2cnc(-c3c[nH]c4ncc(F)cc34)cc21

>  <pIC50>
5.00 to 6.00

$$$$

Consider the molecule shown here: O=C(O)CCn1ccc2cnc(-c3c[nH]c4ncc(F)cc34)nc21 What is its recorded pIC50?
4.00 to 5.00

Consider the molecule shown here: CNC(=O)CNC(=O)[C@H]1C2CCC(CC2)[C@@H]1n1cc(Cl)c2cnc(-c3c[nH]c4ncc(F)cc34)nc21 What is its recorded pIC50?
5.00 to 6.00

Consider the molecule shown here: O=C(O)[C@H]1CCCC1n1ccc2cnc(-c3c[nH]c4ncc(F)cc34)nc21 (single isomer, unassigned) [Compound B21] What is its recorded pIC50?
5.00 to 6.00

Consider the molecule shown here: CCOC(=O)[C@@H]1C2CCC(CC2)[C@H]1n1cc(-c2cn[nH]c2)c2cnc(-c3c[nH]c4ncc(F)cc34)nc21 What is its recorded pIC50?
4.00 to 5.00

Consider the molecule shown here: C[C@H](NC(=O)Cn1ccc2cnc(-c3c[nH]c4ncc(F)cc34)nc21)C(=O)O What is its recorded pIC50?
4.00 to 5.00

Consider the molecule shown here: CCCCCOCCOCCNC(=O)N[C@H]1CCC[C@@H](n2ccc3cnc(-c4c[nH]c5ncc(F)cc45)nc32)C1 What is its recorded pIC50?
< 4.00

###

pIC50: −log10 of the molar value.
Parameter 'readout' = pIC50; parameter 'system' = Influenza PB2 (Influenza A virus, UniProt P03428).

// below: answered compounds
>  <Structure smiles string>
O=C(O)[C@@H]1C2CCC(CC2)[C@H]1n1cc(-c2ccccn2)c2cnc(-c3c[nH]c4ncc(F)cc34)nc21

>  <Assayed target>
Influenza PB2 (Influenza A virus, UniProt P03428)

>  <Reported value>
> 6.00

$$$$
>  <Structure smiles string>
CN(C)C(=O)N1CCC(Cn2cc(F)c3cnc(-c4c[nH]c5ncc(F)cc45)nc32)CC1

>  <Assayed target>
Influenza PB2 (Influenza A virus, UniProt P03428)

>  <Reported value>
4.00 to 5.00

$$$$
>  <Structure smiles string>
O=C(O)[C@@H]1C2CCC(CC2)[C@H]1n1cc(CCc2ccccn2)c2cnc(-c3c[nH]c4ncc(F)cc34)nc21

>  <Assayed target>
Influenza PB2 (Influenza A virus, UniProt P03428)

>  <Reported value>
> 6.00

$$$$
>  <Structure smiles string>
CCOC(=O)[C@@H]1C2CCC(CC2)[C@H]1n1cc(F)c2cnc(-c3c[nH]c4ncc(C#N)cc34)nc21

>  <Assayed target>
Influenza PB2 (Influenza A virus, UniProt P03428)

>  <Reported value>
< 4.00

$$$$

Checklist item: pIC50 tested on Influenza PB2 (Influenza A virus, UniProt P03428), entry CCCCCOCCOCCN(C)C(=O)N[C@@H]1CCC[C@H](n2ccc3cnc(-c4c[nH]c5ncc(F)cc45)nc32)C1 , value?
< 4.00

Checklist item: pIC50 tested on Influenza PB2 (Influenza A virus, UniProt P03428), entry CCOC(=O)[C@H]1C2CCC(CC2)[C@@H]1n1cc(Cl)c2cnc(-c3cn(S(=O)(=O)c4ccc(C)cc4)c4ncc(F)cc34)nc21 , value?
< 4.00

Checklist item: pIC50 tested on Influenza PB2 (Influenza A virus, UniProt P03428), entry CNC(=O)[C@H]1C2CCC(CC2)[C@@H]1n1cc(Cl)c2cnc(-c3c[nH]c4ncc(F)cc34)nc21 , value?
5.00 to 6.00

Checklist item: pIC50 tested on Influenza PB2 (Influenza A virus, UniProt P03428), entry O=C(O)CNC(=O)Cn1ccc2c(-c3c[nH]c4ncc(F)cc34)ncnc21 , value?
4.00 to 5.00

Checklist item: pIC50 tested on Influenza PB2 (Influenza A virus, UniProt P03428), entry O=C(O)[C@@H]1C2CCC(CC2)[C@H]1n1cc(-c2ccccc2)c2cnc(-c3c[nH]c4ncc(F)cc34)nc21 , value?
5.00 to 6.00

Checklist item: pIC50 tested on Influenza PB2 (Influenza A virus, UniProt P03428), entry O=C(O)[C@@H]1C2CCC(CC2)[C@H]1n1cc(-c2cn[nH]c2)c2cnc(-c3c[nH]c4ncc(F)cc34)nc21 , value?
> 6.00

Checklist item: pIC50 tested on Influenza PB2 (Influenza A virus, UniProt P03428), entry CCOCCOCCOCCN(C)C(=O)N[C@H]1CCC[C@@H](n2ccc3cnc(-c4c[nH]c5ncc(F)cc45)nc32)C1 , value?
4.00 to 5.00

Checklist item: pIC50 tested on Influenza PB2 (Influenza A virus, UniProt P03428), entry COC(=O)[C@@H]1C2CCC(CC2)[C@H]1n1cc(-c2ccccc2O)c2cnc(-c3c[nH]c4ncc(F)cc34)nc21 , value?
4.00 to 5.00

Checklist item: pIC50 tested on Influenza PB2 (Influenza A virus, UniProt P03428), entry CCOC(=O)[C@@H]1C2CCC(CC2)[C@H]1n1cc(CCc2ccccn2)c2cnc(-c3c[nH]c4ncc(F)cc34)nc21 , value?
4.00 to 5.00

Checklist item: pIC50 tested on Influenza PB2 (Influenza A virus, UniProt P03428), entry COC(=O)C[C@H](NC(=O)Cn1ccc2c(-c3c[nH]c4ncc(F)cc34)ncnc21)C(=O)OC , value?
< 4.00
